// provenance: BindingDB's records for doi:10.1016/j.bmcl.2017.05.059

experiment.description: Inhibition of Vipera russelii venom sPLA2-induced hemolytic activity in human erythrocytes assessed as reduction hemoglobin release in presence of egg yolk preincubated for 5 mins followed by erythrocyte addition by spectrophotometric analysis
readout.label: pIC50
Give bare numbers, as −log10 of the molar value.

Give the value of pIC50 reported for the following: COc1ccc(C2CC(c3ccco3)=Nc3ccccc3S2)cc1 (stereo unspecified) 4.67
